Target: TSHR (full-length, 21-764) (Homo sapiens, UniProt P16473, V586A)
Sequence (P16473 21-764 V586A): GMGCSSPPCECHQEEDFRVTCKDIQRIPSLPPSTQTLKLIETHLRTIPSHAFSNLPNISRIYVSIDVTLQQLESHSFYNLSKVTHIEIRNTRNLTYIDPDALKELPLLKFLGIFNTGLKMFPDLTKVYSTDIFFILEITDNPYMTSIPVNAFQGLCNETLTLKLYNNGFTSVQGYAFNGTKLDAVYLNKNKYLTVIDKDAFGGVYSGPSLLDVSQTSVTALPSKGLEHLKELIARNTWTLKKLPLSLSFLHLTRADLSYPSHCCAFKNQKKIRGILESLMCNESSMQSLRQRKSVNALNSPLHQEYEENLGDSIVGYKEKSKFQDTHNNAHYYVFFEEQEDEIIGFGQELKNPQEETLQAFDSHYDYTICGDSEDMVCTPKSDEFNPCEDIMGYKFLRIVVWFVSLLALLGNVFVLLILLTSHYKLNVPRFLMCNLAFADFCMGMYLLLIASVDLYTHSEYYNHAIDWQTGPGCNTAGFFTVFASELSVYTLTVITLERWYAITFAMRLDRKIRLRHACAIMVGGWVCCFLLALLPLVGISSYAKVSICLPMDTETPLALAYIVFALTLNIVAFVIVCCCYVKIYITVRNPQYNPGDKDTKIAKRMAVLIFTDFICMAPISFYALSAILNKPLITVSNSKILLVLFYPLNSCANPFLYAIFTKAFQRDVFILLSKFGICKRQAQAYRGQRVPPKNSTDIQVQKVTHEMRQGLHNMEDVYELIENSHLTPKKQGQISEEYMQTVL
Test: LANCE cAMP accumulation, transfected CHO-K1 cells
pEC50: −log10 of the molar value.
Measurement Kind: pEC50

[
  {
    "Input Smiles": "COc1ccc([C@H]2Nc3cccc(O)c3C(=O)N2Cc2ccccc2)cc1COc1ccc(NC(C)=O)cc1",
    "Target Under Test": "TSHR (full-length, 21-764) (Homo sapiens, UniProt P16473, V586A)",
    "Test Value": 5.69
  }
]

###

Target: TSHR (full-length, 21-764) (Homo sapiens, UniProt P16473)
Sequence (P16473 21-764): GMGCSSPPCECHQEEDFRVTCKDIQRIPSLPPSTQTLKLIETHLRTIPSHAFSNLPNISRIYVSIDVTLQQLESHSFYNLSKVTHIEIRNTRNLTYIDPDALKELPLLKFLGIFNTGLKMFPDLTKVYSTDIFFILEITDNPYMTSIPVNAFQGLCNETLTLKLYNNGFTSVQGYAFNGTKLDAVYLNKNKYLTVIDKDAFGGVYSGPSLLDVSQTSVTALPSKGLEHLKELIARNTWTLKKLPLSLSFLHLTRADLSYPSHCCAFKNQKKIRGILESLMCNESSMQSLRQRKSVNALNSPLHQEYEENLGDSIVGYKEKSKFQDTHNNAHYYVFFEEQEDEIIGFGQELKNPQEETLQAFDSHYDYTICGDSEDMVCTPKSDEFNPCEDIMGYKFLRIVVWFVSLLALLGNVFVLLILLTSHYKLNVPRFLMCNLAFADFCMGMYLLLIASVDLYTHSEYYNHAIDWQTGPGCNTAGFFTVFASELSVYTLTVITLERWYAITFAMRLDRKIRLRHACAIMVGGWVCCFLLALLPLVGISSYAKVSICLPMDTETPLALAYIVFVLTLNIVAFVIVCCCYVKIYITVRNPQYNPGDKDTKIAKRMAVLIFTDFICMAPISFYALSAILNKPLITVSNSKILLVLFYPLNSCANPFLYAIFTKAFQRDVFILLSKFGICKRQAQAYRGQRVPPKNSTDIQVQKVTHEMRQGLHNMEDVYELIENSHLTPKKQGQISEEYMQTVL
Experiment: LANCE cAMP accumulation, transfected CHO-K1 cells
pEC50: −log10 of the molar value.
Measurement Kind: pEC50

[
  {
    "Input Smiles": "COc1ccc([C@H]2Nc3cccc(O)c3C(=O)N2Cc2ccccc2)cc1COc1ccc(NC(C)=O)cc1",
    "Test Value": 6.48
  }
]

###

Molecular target: TSHR (full-length, 21-764) (Homo sapiens, UniProt P16473, I640A)
Sequence (P16473 21-764 I640A): as the sequence (P16473 21-764) above, with I620A counted along it
Assay: LANCE cAMP accumulation, transfected CHO-K1 cells

[
  {
    "Input Smiles": "COc1ccc([C@H]2Nc3cccc(O)c3C(=O)N2Cc2ccccc2)cc1COc1ccc(NC(C)=O)cc1",
    "Target Under Test": "TSHR (full-length, 21-764) (Homo sapiens, UniProt P16473, I640A)",
    "EC50": "1150 nM"
  }
]

###

Target: TSHR (full-length, 21-764) (Homo sapiens, UniProt P16473, M572A)
Sequence (P16473 21-764 M572A): as the sequence (P16473 21-764 V586A) above, with M552A, A566V counted along it
Assay: LANCE cAMP accumulation, transfected CHO-K1 cells
Measurement Kind: EC50 (µM)

[
  {
    "Input Smiles": "COc1ccc([C@H]2Nc3cccc(O)c3C(=O)N2Cc2ccccc2)cc1COc1ccc(NC(C)=O)cc1",
    "Target Under Test": "TSHR (full-length, 21-764) (Homo sapiens, UniProt P16473, M572A)",
    "Measurement Kind": "EC50",
    "Measurement Units": "µM",
    "Test Value": 2.4
  }
]
